Source listed as ChEMBL document CHEMBL1132277.

target: Protein kinase C delta type (Mus musculus, UniProt P28867); assay: Binding of Indolactam-V(ILV) to mutant Protein kinase C delta C1b domain (Phe13 to Gly)
experimental readout: Ki (nM)
Expressed in nM, but write only the number.

Query Ki for CC(C)[C@H]1C(=O)N[C@H](CO)Cc2c[nH]c3cccc(c23)N1C
10.9
